Test system: HT29 colon
protocol: NCI-60 one-dose screen, 48 h
setup-conditions: 10 µM unless noted
About 83,000 compounds went through this panel and 20% of them were active in at least one assay; those are over-represented in the sample as a whole. Active and inactive are the calls of the source. How the source made its calls: active means growth percent below 10; inactive means the rest.
Valid outcomes are listed here; reply with one: active, inactive

Below, 10 compounds whose answers are already recorded.
CC(C)CSc1ncnc2nc[nH]c12 ... inactive
NC(=S)Cc1ccccc1 ... inactive
O=[N+]([O-])c1cc([N+](=O)[O-])c(C(F)(F)F)cc1NN=C(c1ccc(O)cc1)c1ccc(O)cc1 ... inactive
C[C@@H]1C[C@H]2C(=O)O[C@@H](C)[C@H](NC(=O)[C@H](Cc3cc(F)cc(F)c3)NC(=O)Nc3ccc(C4CC4)cc3F)C(=O)N3CCC[C@H]3C(=O)N3CCCC[C@H]3C(=O)N[C@@H](C)C(=O)N2C1 ... inactive
CCC(Br)(CC)C(=O)c1ccc(OCC(=O)O)c(Cl)c1Cl ... inactive
CCCCCCCCCCCCCC[n+]1cccc(C(N)=O)c1 ... active
C=C1C(=O)O[C@H]2[C@H]1CC/C(COC(=O)NCc1ccc(Cn3c(=O)sn(-c4ccc(Cl)cc4)c3=O)cc1)=C\CC[C@@]1(C)O[C@@H]21 ... inactive
CCNC(=O)N1CCc2c(Cl)c3c(c(OC)c2[C@@H]1[C@H]1OCc2c1ccc(OC)c2OC)OCCO3 ... inactive
CC1Cc2c(ncnc2-n2cnc3ccccc32)N(C)c2ccccc21 (centres undefined) ... active
CC1(C)CC[C@]2(C(N)=O)CC[C@]3(C)C(=CC[C@@H]4[C@@]5(C)C/C(=C/c6cccnc6)C(=O)C(C)(C)[C@@H]5CC[C@]43C)[C@@H]2C1 ... active

How was CC(=O)n1cc(C=O)c2ccccc21 classified in this test?
inactive

Recorded test call requested for CC(C)CCNCC(C)(C)O
inactive

Recorded test call requested for CCOc1ccc(/C=C(\C#N)c2cc3ccccc3[nH]2)cc1
inactive

Name the outcome recorded for C=C(C)[C@@H]1CC[C@]2(C(N)=O)CC[C@]3(C)[C@H](CC[C@@H]4[C@@]5(C)CC[C@H](O)C(C)(C)[C@@H]5CC[C@]43C)[C@@H]12 in the assay.
active

Tell me the assay call for CC(C)C1=NOC(=O)C1=Cc1cn(-c2ccco2)nc1-c1ccccc1 please.
inactive

// return assay outcome for O=C(Nc1cccc(C2=NCCN2)c1)c1cccc(C(=O)Nc2cccc(C3=NCCN3)c2)c1
inactive

Answer briefly: the call reported for CCN(CC)CCCNCc1cc(-c2ccccc2)nc2ccccc12 in this assay.
inactive

GET /call?item= O=C(Nc1cccc2cccnc12)c1cc(C(=O)c2ccc(Cl)cc2)n2ccc(-c3ccncc3)cc12 returns the recorded outcome of this test.
inactive

State the result this test recorded for Cc1cc(-c2ccc(N=Nc3c(S(=O)(=O)O)cc4cc(S(=O)(=O)O)cc(N)c4c3O)c(C)c2)ccc1N=Nc1cc(S(=O)(=O)O)c2ccccc2c1O .
inactive

Per the records of this test, what outcome belongs to O=C(Nc1ccc(Cl)c(C(F)(F)F)c1)Nc1ccc(-c2cccnc2)cc1N1CCC(CO)CC1 ?
active

Would you mind telling me which call this test gave COc1cc(C)cc2oc3oc(=N)c(C(=O)c4ccccc4)cc3c(=O)c12 ?
inactive

Please share the test call associated with COCc1nc2ccccc2[nH]1 .
inactive

In this assay, the call recorded for [2H]C1([2H])CCN(C(=O)C2CC2)c2cc(NS(=O)(=O)c3ccc(-c4cccc(C(N)=O)c4)cc3)ccc21 was what?
inactive

Identify the outcome logged in this assay for the compound shown: CC(=O)Nc1ccc2nc3ccc(NC(C)=O)cc3[n+](-c3ccccc3)c2c1
inactive

// return assay outcome for CC1=CC[C@@H]2C(C)(C)C(=O)CC[C@@]2(C)[C@@H]1COc1ccc2ccc(=O)oc2c1
inactive

Dear all, I need the recorded test outcome for COc1ccc2c(c1)c(-c1noc(-c3cn(C)c4ncc(F)cc34)n1)cn2C , thank you.
inactive
